endpoint: melting point (°C)

compound | endpoint | number
CC(CNC(=O)c1ccccc1)C(=O)OCC(=O)C12OC(C)(C)OC1CC1C3CCC4=CC(=O)C=CC4(C)C3(F)C(O)CC12C (stereo unspecified) | melting point | 205
Cc1ccc(Cn2ncc3c(N)ncnc32)cc1 | melting point | 222
CCOc1cc(C=O)ccc1OC | melting point | 52
COC1CCC(C2C(=O)NC(=O)NC2=O)CC1 (stereo unspecified) | melting point | 215
Cc1cc(=O)oc2cc(OC3OC(CO)C(O)C(O)C3O)ccc12 (stereo unspecified) | melting point | 248
O=C(O)CCC(=O)OOC(=O)CCC(=O)O | melting point | 127
Cc1ccc2c(c1)CC2=O | melting point | 53
COc1cc(CCC(=O)O)cc(OC)c1OC | melting point | 104

* * *

# if value of melting point reaches 200 °C, tag yes (1); if it stays below, tag no (0)

mol | classification
Oc1cc(C(F)(F)F)nc2ccc(Br)cc12 | yes (1)
O=C(O)COc1ccc(C(=O)c2cccs2)c(Cl)c1Cl | no (0)
C#CC(C)(C)Cl | no (0)
O=C(O)C=CC=Cc1ccc2c(c1)OCO2 | yes (1)

* * *

# melting point per entry
endpoint: melting point (°C)

compound | result.modifier | number
O=C(Nc1ccccc1)c1ccccc1I | = | 137
Cc1cc(C2CCCCC2)n(O)c(=O)c1 | = | 144
COC(=O)CSc1cc(N=c2sc(=O)n3n2CCCC3)c(F)cc1Cl | = | 106
COc1nc2c(c(=O)n(C)c(=O)n2C)n1C | = | 176
NCC1OC(OC2C(N)CC(N)C(O)C2OC2OC(CO)C(O)C2O)C(N)C(O)C1O (stereo not drawn) | = | 194
CCCCCCCCCCCCCCC=O | = | 24.5
N#Cc1ccc(C(F)(F)F)nc1 | = | 39
COC(=O)CCCCC(=O)O | = | 9
N#CSC#N | = | 63.5
CC(C)=C1OC(=O)N(c2cc(OC3CCCC3)c(Cl)cc2F)C1=O | = | 104
NC(=O)/C(=N\Nc1cccnc1)c1nc2ccccc2s1 | = | 238
Oc1cc(F)cc(F)c1F | = | 29
O=CC=Cc1ccc([N+](=O)[O-])cc1 | = | 142
Nc1nnc(-c2ccccc2)s1 | > | 270
CCCNC(=O)NNC(=O)OCC | = | 95
CN(C)c1ccc(N=Nc2ccc([N+](=O)[O-])cc2)cc1 | = | 236
CCS(N)(=O)=O | = | 60

* * *

Listed here: items and their measured melting point.

mol | melting point [°C]
NC(=O)C12CC3CC(CC(C3)C1)C2 | 189
Oc1ccc(O)c(Cl)c1 | 108
Oc1cccc(CN2CCCCC2)c1 | 140
CCOc1nc(NC)nc(NC(=O)NS(=O)(=O)c2ccccc2C(=O)OC)n1 | 194
CCOC(=O)c1c(-c2ccc(OC)cc2)csc1N | 75
CCOC(=O)c1ccc(COC(C)=O)o1 | 42.3

* * *

# melting point values compiled below
endpoint: melting point (°C)

compound | endpoint | number
Nc1ccc(S(=O)(=O)Nc2ccnn2-c2ccccc2)cc1 | melting point | 181
NNC(=O)c1ccc(Cl)cc1 | melting point | 164
CNC(=O)C(=NOC)c1ccccc1Oc1ccccc1 | melting point | 88
CCC12CCCN(CCc3c([nH]c4ccccc34)CC1)C2 (stereo unspecified) | melting point | 146
O=S(=O)(Cl)c1ccc(Oc2ccccc2)cc1 | melting point | 44
Cn1c(=O)c(C2=NNC(=O)C2=NNc2cc(Cl)ccc2Cl)c(O)c2ccccc21 | melting point | 284
O=Cc1ccncc1 | melting point | -4
CC1(C)C2CCC1(C)C(N=C1C(=O)Nc3ccccc31)C2N=C1C(=O)Nc2ccccc21 (stereo unspecified) | melting point | 234
